Source listed as paper PMC9924077.

System: hiPSC-CMs
Type: cell-based, human
Conditions: hiPSC-CMs, Torsadogenic safety margin
quantityMeasured: apparent risk in this study compared with actual clinical practice

Cc1cccc(C)c1OCC(C)N (stereo not shown) ... riskier
O=C(CCCN1CC=C(n2c(=O)[nH]c3ccccc32)CC1)c1ccc(F)cc1 ... riskier
COc1ccccc1OCC(O)CN1CCN(CC(=O)Nc2c(C)cccc2C)CC1 (stereo not shown) ... riskier
